Each recorded value in this set is attributed to ChEMBL document CHEMBL1128641.

- STUDY_TARGET: Angiotensin II receptor (Rattus norvegicus) (UniProt P29089+P25095+P35351)
- TEST_NAME: Effect on pressure response to angiotensin II receptor (AII) after (i.v.) administration of 1 mg/kg in anesthetized, ganglion blocked, AII-infused rat in vivo
- Assay type: functional, organism-based
- Design: dose 1 mg/kg
Measured ED50, listed per entry.
Give the value, in units of mg/kg, as a plain number.

INSERT INTO assay_data (structure_smiles, measurement) VALUES
  ('CCCCc1nc(C)n(Cc2ccccc2C(=O)O)c(=O)c1Cc1ccc(-c2ccccc2-c2nn[nH]n2)cc1', 0.31),
  ('CCCCc1nc(C)n(Cc2ccccc2)c(=O)c1Cc1ccc(-c2ccccc2-c2nn[nH]n2)cc1', 1.07),
  ('CCCCc1nc(C)n(Cc2occc2C(=O)O)c(=O)c1Cc1ccc(-c2ccccc2-c2nn[nH]n2)cc1', 0.43),
  ('CCCCc1nc(C)n(Cc2occc2C(=O)OC)c(=O)c1Cc1ccc(-c2ccccc2-c2nn[nH]n2)cc1', 0.3),
  ('CCCCc1nc(C)n(Cc2ccsc2C(=O)OC)c(=O)c1Cc1ccc(-c2ccccc2-c2nn[nH]n2)cc1', 0.54),
  ('CCCCc1nc(C)n(Cc2sccc2C(=O)O)c(=O)c1Cc1ccc(-c2ccccc2-c2nn[nH]n2)cc1', 0.45),
  ('CCCCc1nc(Cl)c(CO)n1Cc1ccc(-c2ccccc2-c2nnn[nH]2)cc1', 0.32);

Alright, here's another compound for you.
Field ED50 (entry `CCCCc1nc(C)n(Cc2occc2C(=O)O)c(=O)c1Cc1ccc(-c2ccccc2C(=O)O)cc1` ) reads 0.85

###

- STUDY_TARGET: Angiotensin II receptor (AT-1) type-1 (Rattus norvegicus, UniProt P29089+P25095)
- TEST_NAME: Displacement of [3H]angiotensin II from Angiotensin II type 1 receptor in rat adrenal cortical membrane
- Type: cell membranes
Threshold 60 nM. Ki below it: true (1). Ki at it or above: false (0).

Strictly below 60 nM in Ki? `CCCCc1ncnc(O)c1Cc1ccc(-c2ccccc2C(=O)O)cc1`
false (0)

Please determine if `CCCCc1nc(C)n(Cc2occc2C(=O)O)c(=O)c1Cc1ccc(-c2ccccc2C(=O)O)cc1` is below 60 nM in terms of Ki.
false (0)

Quick check: Ki of `CCCCc1nc(C)n(Cc2sccc2C(=O)O)c(=O)c1Cc1ccc(-c2ccccc2-c2nn[nH]n2)cc1` under 60 nM?
true (1)

Please let me know if `CCCCc1nc(C)nc(O)c1Cc1ccc(-c2ccccc2C(=O)O)cc1` shows Ki below 60 nM.
false (0)

In the record for `CCCCc1nc(C)n(Cc2ccccc2C(=O)O)c(=O)c1Cc1ccc(-c2ccccc2-c2nn[nH]n2)cc1` , is Ki less than 60 nM?
true (1)

Ki under 60 nM? Item: `CCCCc1nc(C)n(Cc2occc2C(=O)OC)c(=O)c1Cc1ccc(-c2ccccc2-c2nn[nH]n2)cc1`
true (1)

Does the reported Ki of the following compound sit strictly below 60 nM? `CCCCc1nc(C)cc(=O)n1Cc1ccc(-c2ccccc2C(=O)O)cc1`
false (0)

Bench note: check whether `CCCCc1nc(C)n(Cc2ccccc2)c(=O)c1Cc1ccc(-c2ccccc2-c2nn[nH]n2)cc1` shows Ki below 60 nM
true (1)

Strictly below 60 nM in Ki? `CCCCc1ncn(Cc2ccccc2C(=O)O)c(=O)c1Cc1ccc(-c2ccccc2C(=O)O)cc1`
false (0)

Please determine if `CCCCc1nc(C)nc(O)c1Cc1ccc(-c2ccccc2-c2nn[nH]n2)cc1` is below 60 nM in terms of Ki.
true (1)

Confirm or reject: Ki of `CCCCc1ncn(Cc2ccccc2)c(=O)c1Cc1ccc(-c2ccccc2C(=O)O)cc1` lies strictly below 60 nM
true (1)

Please determine if `CCCCc1nccc(=O)n1Cc1ccc(-c2ccccc2C(=O)O)cc1` is below 60 nM in terms of Ki.
false (0)

Problem: For the compound `CCCCc1nc(C)n(Cc2ccsc2C(=O)OC)c(=O)c1Cc1ccc(-c2ccccc2-c2nn[nH]n2)cc1` , is Ki under 60 nM?
true (1)
